Experiment: Volume of distribution at steady state in Sprague-Dawley rat at 2 mg/kg, iv or 5 mg/kg, po
Format: ADME, organism-based
Details: in vivo, read-out: Vdss

[
  {
    "smiles_text": "Cl.O=C1COc2ccc(CNC34CCC(CCc5c(F)cnc6ccc(OCCCO)nc56)(CC3)OC4)nc2N1",
    "units_label": "L/kg",
    "Vd": 0.84
  }
]

###

Test system: Escherichia coli
Experiment: Antimicrobial activity against Escherichia coli ATCC 25922 by micro broth dilution or agar based method
Format: functional
Please assign false whenever MIC is at or above 8 µg/mL, and true whenever it is below.

[
  {
    "compound": "O=C(O)COc1ccc2ncc(F)c(CCC34CCC(NCc5ccc6c(n5)NC(=O)CO6)(CC3)CO4)c2n1",
    "cat": "false"
  },
  {
    "compound": "NC1CC1COc1ccc2ncc(F)c(CCC34CCC(NCc5ccc6c(n5)NC(=O)CO6)(CC3)CO4)c2n1 (stereo unspecified)",
    "cat": "true"
  },
  {
    "compound": "N[C@@H]1COC[C@H]1Oc1ccc2ncc(F)c(CCC34CCC(NCc5ccc6c(n5)NC(=O)CO6)(CC3)CO4)c2n1",
    "cat": "true"
  },
  {
    "compound": "O=C1COc2ccc(CNC34CCC(CCc5c(F)cnc6ccc(OC[C@@H]7C[C@@H](O)[C@@H](O)C7)nc56)(CC3)OC4)nc2N1",
    "cat": "false"
  },
  {
    "compound": "CCOC(=O)C(F)(F)CCOc1ccc2ncc(F)c(CCC34CCC(NCc5ccc6c(n5)NC(=O)CO6)(CC3)CO4)c2n1",
    "cat": "false"
  },
  {
    "compound": "COC(=O)C1(COc2ccc3ncc(F)c(CCC45CCC(NCc6ccc7c(n6)NC(=O)CO7)(CC4)CO5)c3n2)CC1",
    "cat": "false"
  },
  {
    "compound": "O=C1COc2ccc(CNC34CCC(CCc5c(F)cnc6ccc(OCCO)nc56)(CC3)OC4)nc2N1",
    "cat": "true"
  },
  {
    "compound": "NCCCCOc1ccc2ncc(F)c(CCC34CCC(NCc5ccc6c(n5)NC(=O)CO6)(CC3)CO4)c2n1",
    "cat": "true"
  },
  {
    "compound": "NC1(COc2ccc3ncc(F)c(CCC45CCC(NCc6ccc7c(n6)NC(=O)CO7)(CC4)CO5)c3n2)CC1",
    "cat": "true"
  },
  {
    "compound": "O=C1COc2ccc(CNC34CCC(CCc5c(F)cnc6ccc(OCCCO)nc56)(CC3)OC4)nc2N1",
    "cat": "true"
  },
  {
    "compound": "O=C1COc2ccc(CNC34CCC(CCc5c(F)cnc6ccc(OC[C@H]7C[C@H]7C(=O)O)nc56)(CC3)OC4)nc2N1 (relative stereo)",
    "cat": "false"
  },
  {
    "compound": "N[C@H]1CO[C@H]1COc1ccc2ncc(F)c(CCC34CCC(NCc5ccc6c(n5)NC(=O)CO6)(CC3)CO4)c2n1",
    "cat": "true"
  }
]
